Numbers sourced from paper PMC12375970.

target: mImpα2 (Mus musculus, UniProt P52293); construct: MImpα2, residues 70–529, was co‐crystallized with each NLS analog; His-tag; made in house; host or cells: Escherichia coli BL21 (DE3); test: Microscale thermophoresis (MST); format: binding; conditions: RED-NHS-labelled mImpα2 60 nM, NLS 250 μM–7.6 nM, 20 mM Tris–HCl, 127 mM NaCl, pH 8.0, 0.5% Tween-20, mean ± SD of three experiments, read-out: KD, 1-binding site fitted model
pKd: −log10 of the molar value. Ends that are not written are not given here.
READOUT_NAME: pKd

// solved cases for pKd follow
{"SUBSTANCE": "PVKKEKIEE [A2]", "TARGET_OR_SYSTEM": "mImpα2 (Mus musculus, UniProt P52293)", "pKd": 4.80}
{"SUBSTANCE": "EVKKPKIDE [A1]", "TARGET_OR_SYSTEM": "mImpα2 (Mus musculus, UniProt P52293)", "pKd": 4.86}

P = PVKKPKIRR [TAF8]
Q = H-PEKKPKIDE-OH [A3]
R = PVKKEKIDE [A4]
Q. // sort entries: pKd, high to low Answer format: the labels, in the requested order.
A. P, Q, R
